Source of measurements: paper PMC9005681

- System: cloned human or rodent CNS receptors, channels, and transporters (PDSP panel)
- Assay name: PDSP GPCR panel primary binding assays at 10 μM
- Details: Alpha1A; primary assay, mean inhibition
Task for the reader: assign each of the following compounds its reported Mean %.
Give bare numbers, in %.

>>> test_result("CNc1nc(C)nc(N[C@H]2CCC[C@@H](C(=O)NCc3ccc(C#N)cc3C(F)(F)F)C2)n1 [UNC10302679A, GSK2256294A]")
-0.8
>>> test_result("CCC(=O)N1CCC(NC(=O)Nc2ccc(OC(F)(F)F)cc2)CC1 [UNC10302681A, TPPU]")
-2.01
>>> test_result("O=C(NC1CC1)C(=O)C(Cc1ccccc1)NC(=O)[C@H]1CCC(=O)N1Cc1ccccc1 (stereo partly shown) [UNC10302676A, ABT-957 (Alicapistat)]")
-18.33

Now for a further compound.
Q: Item CC(=O)N1CCC(NC(=O)NC23CC4CC(CC(C4)C2)C3)CC1 [UNC10302683A, AR9281] : provide Mean %
Result: -5.99
